The reported numbers originate from PubChem BioAssay (NCI).

Tested on: OVCAR-5 ovarian
Assay: NCI-60 one-dose screen, 48 h (100 = growth as untreated, 0 = no growth, -100 = all killed)
Details: 10 µM unless noted
Protocol: Growth inhibition of the OVCAR-5 human tumor cell line is measured as a screen for anti-cancer activity. Cells are grown in 96 well plates and exposed to the test compound for 48 hours. Compounds are tested at a single concentration, which is 10^-5 M for most compounds. The reported endpoint is percent growth (GI% or GIPRCNT), where numbers from 0 - 100% represent growth inhibition, and numbers from -100% - 0 represent cell death. For example, a value of 40 represents 60% growth inhibition. […]
Compounds without any hit were thinned out: in the full panel of roughly 83,000, 20% have a hit.
MEASUREMENT LABEL: growth (%)

COMPOUND: Nc1ccc(S(=O)(=O)Nc2cc(I)cc(I)c2)cc1
NUMERIC VALUE: 86.5
--
COMPOUND: Fc1ccc(/C=N/n2c(-c3cc(Cl)cc(Cl)c3Cl)nn(CNc3ccc(Cl)nn3)c2=S)cc1
NUMERIC VALUE: 89.9
--
COMPOUND: CCCCC(=O)Nc1nc2ccc(SCCC)cc2s1
NUMERIC VALUE: 69
--
COMPOUND: COc1ccc(-c2cnc(-c3ccc(F)cc3)[nH]2)cc1
NUMERIC VALUE: 116
--
COMPOUND: COc1ccc(/C=C/C(=O)c2ccc(Oc3ncnc4ccccc34)cc2)cc1OC
NUMERIC VALUE: 92.9
--
COMPOUND: COc1cccc(/C=N/C(=S)NC2(C)C3CCC(C3)C2(C)C)c1O (stereo not given)
NUMERIC VALUE: 102
--
COMPOUND: CCOC(=O)C1CN(Cc2ccccc2)C(=O)C1=O (stereo not given)
NUMERIC VALUE: 95.2
--
COMPOUND: O=C(Nc1ccc(-n2ccc3c(NC(=O)c4ccccc4)ncnc32)cc1)c1ccc(Cl)c(C(F)(F)F)c1
NUMERIC VALUE: 52
--
COMPOUND: N#Cc1c(N)nc2c(c1N)C(c1ccc(Cl)cc1)C1=C(CCCC1=O)N2c1sc2c(c1C#N)CCCC2 (stereo not given)
NUMERIC VALUE: 74.8
--
COMPOUND: C#C[C@@]1(O)[C@@H](CO)O[C@@H](n2cc(C(F)(F)F)c3c(N)ncnc32)[C@@H]1O
NUMERIC VALUE: 14.1

###

tested on: OVCAR-3 ovarian; test: NCI-60 one-dose screen, 48 h (100 = growth as untreated, 0 = no growth, -100 = all killed); conditions: 10 µM unless noted
This is part of a sample that, as a whole, favours compounds with a hit. Of some 83,000 tested, about 20% had one in any assay.
Rule: growth of 70% or more gives Satisfied; anything lower gives Not satisfied.

MOLECULE: CC(C)(c1ccc(OCC(O)CNCc2ccco2)cc1)c1ccc(OCC(O)CNCc2ccco2)cc1 (stereo not given)
TARGET: OVCAR-3 ovarian
GROUP LABEL: Satisfied

MOLECULE: CN1C(=O)C2(NN=C(c3cccc4ccccc34)S2)c2ccccc21 (stereo not given)
TARGET: OVCAR-3 ovarian
GROUP LABEL: Not satisfied

MOLECULE: c1coc(CSc2ncnc3nc[nH]c23)c1
TARGET: OVCAR-3 ovarian
GROUP LABEL: Satisfied

MOLECULE: Nc1ncnc2c1c(-c1ccc(Oc3ccccc3)cc1)nn2C[C@H]1SSC[C@H]1O
TARGET: OVCAR-3 ovarian
GROUP LABEL: Not satisfied
